- Tested on: 8XTBD luciferase reporter (YAP) in HEK293T cells
- PROCEDURE SUMMARY: YAP Reporter Assay
- Type: cell-based
- EXPERIMENTAL PARAMETERS: Homo sapiens, HEK-293T; HEK293T cells stably transfected with 8XTBD luciferase reporter and pRLTK; 24-hr incubation; top concentration 3 μM; read-out: Firefly Luciferase IC50
Can you tell me IC50 for the items I'm about to list?

Reference set (6 entries):
CC(C)NCCc1nnc(-c2ccccc2Nc2ccc(C(F)(F)F)cc2)o1 [Compound 91]; 1000 to 5000 nM
NC(=O)C1(c2nnc(-c3ccccc3Nc3ccc(C(F)(F)F)cc3)o2)CC1 [Compound 187]; < 100 nM
OCC(O)(CO)c1nnc(-c2ccccc2Nc2ccc(C(F)(F)F)cc2)o1 [Compound 201]; < 100 nM
O=C1NCCN1c1nnc(-c2ccccc2Nc2ccc(C(F)(F)F)cc2)o1 [Compound 34]; 100 to 1000 nM
OCCNc1nnc(-c2ccccc2Nc2ccc(C(F)(F)F)cc2)o1 [Compound 10]; 100 to 1000 nM
FC(F)(F)c1ccc(Nc2ccccc2-c2nnc(C3CO3)o2)cc1 (stereo not shown) [Compound 122]; < 100 nM

As a next step, examine the compound that follows.
## Task // query IC50 value for entry CN(Cc1nnc(-c2ccccc2Nc2ccc(C(F)(F)F)cc2)o1)C(=O)OC(C)(C)C [Compound 167]
## Result 1000 to 5000 nM

Where do the numbers come from? From patent US11661403B2.
